Reference source: paper PMC3267017

biological target: MetJ dimer–DNA complex (F-metC) (Escherichia coli, UniProt P0A8U6); assay: Fluorescence anisotropy assay: MetJ titrated into F-metC DNA and ligand, MetJ dimer–DNA complex formation; format: binding; details: bivalent ligand 1 mM; F-metC 10 nM; DMSO 2%; average of three titrations; read-out: EC50, concentration of MetJ monomer required to promote half-maximal formation of its complex with the F-metC DNA
Sequence (P0A8U6 2-105, one chain of several): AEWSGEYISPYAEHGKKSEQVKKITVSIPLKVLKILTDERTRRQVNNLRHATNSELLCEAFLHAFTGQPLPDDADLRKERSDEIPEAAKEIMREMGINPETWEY
Catalogue of EC50 readings, one per entry.
Give your result in nM as a bare value.

Below, 2 compounds whose answers are already recorded.
CN(CC[C@H](N)C(=O)NCc1ccc(CNC(=O)[C@@H](N)CCN(C)C[C@H]2O[C@@H](n3cnc4c(N)ncnc43)[C@H](O)[C@@H]2O)cc1)C[C@H]1O[C@@H](n2cnc3c(N)ncnc32)[C@H](O)[C@@H]1O    61
C[N+](C)(CC[C@H](N)C(=O)NCc1cccc(CNC(=O)[C@@H](N)CC[N+](C)(C)C[C@H]2O[C@@H](n3cnc4c(N)ncnc43)[C@H](O)[C@@H]2O)c1)C[C@H]1O[C@@H](n2cnc3c(N)ncnc32)[C@H](O)[C@@H]1O [Compound 10b]    10

Just so you know, measured EC50 for `CN(CC[C@H](N)C(=O)NCC#CC#CCNC(=O)[C@@H](N)CCN(C)C[C@H]1O[C@@H](n2cnc3c(N)ncnc32)[C@H](O)[C@@H]1O)C[C@H]1O[C@@H](n2cnc3c(N)ncnc32)[C@H](O)[C@@H]1O` came out at 111

* * *

target: MetJ dimer–DNA complex (F-metC) (Escherichia coli, UniProt P0A8U6); assay: Fluorescence anisotropy assay: MetJ titrated into F-metC DNA and ligand, MetJ dimer–DNA complex formation; type: binding; settings: SAM, ligand concentration not given; F-metC 10 nM; DMSO 2%; read-out: EC50, concentration of MetJ monomer required to promote half-maximal formation of its complex with the F-metC DNA
QUANTITY_NAME: pEC50
By convention, pEC50 is the negative base-10 log of a molar concentration.

Sample C[S+](CC[C@H](N)C(=O)[O-])C[C@H]1O[C@@H](n2cnc3c(N)ncnc32)[C@H](O)[C@@H]1O (stereo partly shown) ; pEC50 observed: 7.76

* * *

biological target: MetJ dimer–DNA complex (F-metC) (Escherichia coli, UniProt P0A8U6); assay: Fluorescence anisotropy assay: MetJ titrated into F-metC DNA and ligand, MetJ dimer–DNA complex formation; format: binding; conditions: unquaternised bivalent ligand 1 mM vs 11 at 2 mM
QUANTITY_NAME: Fold-improvement over monovalent control 11

Some molecules with recorded Fold-improvement over monovalent control 11:
CN(CC[C@H](N)C(=O)NCc1cccc(-c2cccc(CNC(=O)[C@@H](N)CCN(C)C[C@H]3O[C@@H](n4cnc5c(N)ncnc54)[C@H](O)[C@@H]3O)c2)c1)C[C@H]1O[C@@H](n2cnc3c(N)ncnc32)[C@H](O)[C@@H]1O    1.6-fold
CN(CC[C@H](N)C(=O)NCC#CC#CCNC(=O)[C@@H](N)CCN(C)C[C@H]1O[C@@H](n2cnc3c(N)ncnc32)[C@H](O)[C@@H]1O)C[C@H]1O[C@@H](n2cnc3c(N)ncnc32)[C@H](O)[C@@H]1O    1.1-fold

Proceeding to the next molecule to report its Fold-improvement over monovalent control 11.
Memo: `CN(CC[C@H](N)C(=O)NCc1ccc(CNC(=O)[C@@H](N)CCN(C)C[C@H]2O[C@@H](n3cnc4c(N)ncnc43)[C@H](O)[C@@H]2O)cc1)C[C@H]1O[C@@H](n2cnc3c(N)ncnc32)[C@H](O)[C@@H]1O` , reported Fold-improvement over monovalent control 11: 2.0-fold
